Tested on: LXFL 529
Experiment: NCI tumour cell line growth inhibition, 48 h
Calls of active or inactive are those of the source. Rule as the data show it: active = GI50 up to about 1.1 µM and inactive = higher.
Field 'call' accepts active, inactive

The examples below pair each entry with its known result.
molecule: COc1cc2cnc3c4cc(OC(C)C)c(OC)cc4ccc3c2cc1OC
label class: inactive

molecule: CN(C)CC1CCCC/C1=N\OC(=O)c1ccccc1 (stereo not given)
label class: inactive

molecule: CC1(c2cccc(N)c2)C2C(=O)NC(=O)C1C(=O)NC2=O (stereo not given)
label class: inactive

molecule: Cc1cc2c(cc1C)[n+]([O-])c(C(=O)C/C(=N/NC(=S)NN)C(=O)Nc1cccc(C(F)(F)F)c1)c[n+]2[O-]
label class: inactive

Task item: Could you kindly confirm the outcome this assay logged for O=C1C2C=CC(n3[nH]c(=O)n(Cc4ccccc4)c3=O)CC2C(=O)N1c1cccc(Cl)c1 (stereo not given) ?
Reply: inactive

Task item: Continue with O=c1cc(-c2ccccc2F)[nH]c2cc3c(cc12)OCO3
Reply: active

###

GI50 listing for selected molecules.
System: T47D
Assay: NCI tumour cell line growth inhibition, 48 h
Calls of active or inactive are those of the source. Rule as the data show it: active = GI50 up to about 1.1 µM and inactive = higher.

molecule: CCOC(=O)c1sc2nc(SC)nc(N3CCCCC3)c2c1N
measured target: T47D
GI50: > 100 µM (inactive)
//
molecule: COc1cccc(C2c3cc4c(cc3OC(N3CCOCC3)C2C)OCO4)c1 (stereo not given)
measured target: T47D
GI50: 27.5 µM (inactive)
//
molecule: CCOC(=O)c1cn(CC)c2ccc3c(c2c1=O)S(=O)(=O)C=C3
measured target: T47D
GI50: > 100 µM (inactive)
//
molecule: C[C@H]1C(OCCOC2O[C@@H]3O[C@@]4(C)CC[C@H]5[C@H](C)CCC([C@H]2C)[C@@]35O4)O[C@@H]2O[C@@]3(C)CC[C@H]4[C@H](C)CCC1[C@@]24O3 (stereo not given in full)
measured target: T47D
GI50: 10.6 µM (inactive)
//
molecule: CCOC(=O)C1C(=O)CC1(C)C (stereo not given)
measured target: T47D
GI50: > 10 µM (inactive)

Task item: Dear colleague, I am looking for the recorded GI50 of the following molecule: Cn1c(=O)c(Cl)c(N=[N+]=[N-])c2ccccc21
Reply: 64 µM (inactive)

Task item: Ok, now Clc1cc2nnn(C3CCCCO3)c2cc1Cl (stereo not given)
Reply: 30.4 µM (inactive)

Task item: Repeat for the following molecule: CCOC(=O)C(=C(SC)SC)c1nn2c(=O)cc(C)nc2s1
Reply: 17 µM (inactive)

Task item: Would you kindly repeat that for C[C@]12[C@@H]3CC[C@H]1[C@@H](O)C(=O)N2CC3 ?
Reply: > 100 µM (inactive)

Task item: Request: Cc1ccc(-c2[nH]c(=O)n(C3OC(CO)C(O)C(O)C3O)c(=O)c2C#N)cc1 (stereo not given)
Reply: > 100 µM (inactive)

###

Tested on: SK-MEL-5
Assay: NCI tumour cell line growth inhibition, 48 h
Calls of active or inactive are those of the source. Cut-off read from the data, not from the text of the source: active = GI50 up to about 1.1 µM and inactive = higher.
Your reply should match one of these outcome classes. active, inactive

Please review the following examples before continuing.
compound: CC1CC(c2ccccc2)=Nc2ccccc2S1 (centres undefined)
label class: inactive

compound: S=C(NC/C(Br)=C/Br)Nc1cccc2ccccc12
label class: inactive

compound: N=C1NC(=O)N2CC12 (centres undefined) [IMEXON]
label class: inactive

compound: Oc1ccccc1C1=NOC(c2ccc(C(F)(F)F)cc2)C1 (centres undefined)
label class: inactive

compound: Cc1cc(CN2CCCCC2)c(O)c(CN2CCCCC2)c1
label class: inactive

Task item: Which result was noted for this compound in the test: COC(=O)C1(Cc2ccc3c(c2)CCC3)Cc2ccc3c(c2C1O)CCC3 (centres undefined)
Reply: inactive

Task item: Query C=CCCON(C(=O)OC(C)(C)C)c1ccccc1 next
Reply: inactive
